Experiment: Cytotoxicity bioassay (MTT)
Type: cell-based
Details: African green monkey, Vero cells, five days, I = inactive at 10 µg/mL
Experimental: Vero cells were seeded in 96-well plates in RPM-I1640 medium supplemented with 10 % FBS and 1 % penicillin/streptomycin. The cells were allowed to grow for 24 h before adding the test compounds, dissolved in DMSO, to final concentrations of 10, 4, 0.2 and 0.08 µg/mL. […] All samples were incubated for five days before staining and examining for reduction of 3-(4,5-dimethylthiazol-2-yl)-2,5-diphenyltetrazolium bromide (MTT) and analyzed 4 h later in a color plate reader at 570 nm.
IC50 at 5 days reference
MEASUREMENT LABEL: IC50 at 5 days

SMILES INPUT: [O-][S@+]1C[C@H](O)CS1
RESULT: > 10 µg/mL
--
SMILES INPUT: CC1(C)CC[C@]2(C(=O)O)CC[C@]3(C)C(=CC[C@@H]4[C@@]5(C)CC[C@H](O)C(C)(C)[C@@H]5CC[C@]43C)[C@@H]2C1
RESULT: 141 µM
--
SMILES INPUT: [O-][S@@+]1C[C@H](O)CS1
RESULT: > 10 µg/mL
--
SMILES INPUT: O=c1c(O)c(-c2ccc(O)c(O)c2)oc2cc(O)cc(O)c12
RESULT: > 10 µg/mL
